# system name: T1, human CLDN18.1 on cells (CHO-hCLDN18.1) (human, UniProt P56856 1-261)
# T1 construct: whole, on cells; also called human Claudin18.1
# T1 sequence (P56856 whole entry): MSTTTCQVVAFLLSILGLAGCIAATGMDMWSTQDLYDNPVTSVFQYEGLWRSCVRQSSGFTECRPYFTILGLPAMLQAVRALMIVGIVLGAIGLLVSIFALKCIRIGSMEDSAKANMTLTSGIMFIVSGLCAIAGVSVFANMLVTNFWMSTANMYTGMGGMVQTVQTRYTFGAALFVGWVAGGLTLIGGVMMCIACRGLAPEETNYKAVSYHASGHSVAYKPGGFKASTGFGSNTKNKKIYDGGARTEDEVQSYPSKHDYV
# measurement description: flow cytometry, hybridoma supernatant on CHO-hCLDN18.1

binder	binding result
46F6 (antibody secreted by the hybridoma, culture supernatant) (antibody, V domains shown) VH: QVQLKESGPGLVAPSQSLSITCTVSGFSLTDYGVSWIRQPPGKGLEWLGVMWGGGNTYYNSALKSRLSISKDNSKSQVFLKMNSLQSDDTAMYYCAKQRYGGNAMDYWGQGTSVTVSS VL: DIQMTQSPSSLTVTAGEKVTMSCKSSQSLLNSGNQRNYLTWYQQIPGQPPKLLIYWASTRESGVPNRFTGSGSGAEFTLTISSVQTEDLAVYYCQNSYFYPFTFGAGTKLELK	no binding
69H9 (antibody secreted by the hybridoma, culture supernatant) (antibody, V domains shown) VH: EVQLQQSGPELMKPGASVKISCKATGYSFSSYNIHWVKQSHGKSLEWIGYIAPFNGDSRYNQKFKGKATVTVDKSSSTAYMHLSSLTSEDSAVYYCGRLNRGNSLDYWGQGTSLTVSS VL: DIVMTQSPSSLTVTAGEKVTMSCKSSQSLFNSGNQRNYLTWYQQKPGQPPKLLIYWASTRESGVPDRFTGSGSGTDFTLTISSVQAEDLAFYYCQNNYIYPLTFGAGTKLELK	no binding
